B1: BTBD1 (parent)
chain: YGSIHGPTDYQVNIQIIEYEKKQT

Variants of: B1
Test: protein stability index of a GFP-peptide fusion (GPS, HEK-293T) (PSI 1-6); higher = more stable;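 also: lentivirally expressed fusions sorted by FACS into six bins by GFP to DsRed ratio, PSI derived from sequencing read proportions per bin multiplied by bin number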
Details: c terminus: a fixed tail appended
Metric name: protein stability index
Please give only the number in your answer, with no unit.

**Query** Which value of protein stability index has been reported for D9N in the records?
**Result** 1.98

**Query** // repeat for V12M and report
**Result** 2.93

**Query** And for Q23K ?
**Result** 2.74

**Query** // repeat for H5M and report
**Result** 2.73

**Query** Also need T8I , thanks.
**Result** 2.06

**Query** Again, but for S3I
**Result** 2.24

**Query** What would you report for E18A ?
**Result** 1.71

**Query** Now give it for H5W too.
**Result** 2.09

**Query** Follow-up entry: Q23W
**Result** 2.56

**Query** Same for I4S
**Result** 2.45

**Query** Okay, and D9S ?
**Result** 1.65

**Query** Moving on to the next variant: N13K
**Result** 2.57

**Query** Proceed to Q11M
**Result** 1.93

**Query** // same read-out, input: K22P
**Result** 1.72

**Query** Thanks! And Q15N ?
**Result** 2.62

**Query** Moving on to the next variant: S3Q
**Result** 3.33

**Query** Entry T24V please
**Result** 2.43

**Query** Can you handle I4H next?
**Result** 2.79

**Query** Next: I14C
**Result** 3.3

**Query** Input I16L
**Result** 2.74

**Query** Query G2C next
**Result** 2.56

**Query** And Y10D ?
**Result** 4.3

The reported numbers originate from the supplement of paper PMC10567573.
